Target chain: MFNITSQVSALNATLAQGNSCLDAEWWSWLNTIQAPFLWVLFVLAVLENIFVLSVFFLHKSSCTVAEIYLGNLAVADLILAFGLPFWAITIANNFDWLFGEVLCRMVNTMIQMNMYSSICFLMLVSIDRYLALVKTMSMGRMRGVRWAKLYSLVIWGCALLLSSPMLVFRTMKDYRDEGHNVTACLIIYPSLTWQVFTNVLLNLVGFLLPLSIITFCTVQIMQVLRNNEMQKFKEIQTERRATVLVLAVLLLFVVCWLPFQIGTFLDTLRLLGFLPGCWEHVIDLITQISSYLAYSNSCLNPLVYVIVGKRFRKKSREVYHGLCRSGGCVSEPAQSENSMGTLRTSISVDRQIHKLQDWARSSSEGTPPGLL
Ki for the protein given by its sequence - collated from the literature.
API: value field is a number in nM; no unit string.

In the examples that follow, each entry is paired with its recorded Ki.
COc1cccc(/C=C/C(=O)NCC(=O)N(C)c2ccc(Cl)c(COc3cccc4ccc(C)nc34)c2C#N)c1    0.1
Cc1ccc2cccc(OCc3c(C)ccc(N(C)C(=O)CNC(=O)/C=C/c4ccc(C(F)(F)F)cc4)c3C)c2n1    1.3
COc1c(N(C)C(=O)CNC(=O)/C=C/c2ccc(C(F)(F)F)cc2)ccc(SC)c1COc1cccc2ccc(C)nc12    45.4

Entry under test: C=C/C=C/C(=O)NCC(=O)N(C)c1ccc(Cl)c(COc2cccc3sc(C)nc23)c1Cl . Its Ki was 3.1

Entry under test: CN(C(=O)CNC(=O)[C@@H]1C[C@H](O)CN1C(=O)[C@@H]1CCCN1C(=O)[C@H](CCCN=C(N)N)NC(=O)[C@H](N)CCCN=C(N)N)[C@@H](Cc1ccccc1)C(=O)N[C@@H](CO)C(=O)N1Cc2ccccc2C[C@@H]1C(=O)N1C2CCCCC2C[C@H]1C(=O)N[C@@H](CCCN=C(N)N)C(=O)O (stereo partly drawn) . Its Ki was 26.5

Entry under test: COc1ccc(/C=C/C(=O)NCC(=O)N(C)c2ccc(SC)c(COc3cccc4ccc(C)nc34)c2SC)cc1 . Its Ki was 6.3

Entry under test: Cc1ccc(/C=C/C(=O)NCC(=O)N(C)c2ccc(Cl)c(COc3cccc4sc(C)nc34)c2Cl)cc1 . Its Ki was 1.8

Entry under test: NC(N)=NCCC[C@@H](N)C(=O)N[C@@H](CCCN=C(N)N)C(=O)N1CCC[C@H]1C(=O)N1CCC[C@H]1C(=O)NCC(=O)N[C@@H](Cc1ccccc1)C(=O)N[C@@H](CO)C(=O)N[C@H](Cc1ccccc1)C(=O)N1C2CCCCC2C[C@H]1C(=O)N[C@@H](CCCN=C(N)N)C(=O)O (stereo partly drawn) . Its Ki was 0.75
